# reported switch fluorescence ratio; entries follow
test system: ATP; assay: switch fluorescence ratio, 500 uM ATP over buffer (Cy3 cluster intensity, sum of 5 cycles each) (fold (ratio)); higher = stronger signal-on switching upon ATP binding; sequences stand for … in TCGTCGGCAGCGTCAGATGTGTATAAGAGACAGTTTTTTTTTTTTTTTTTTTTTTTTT…TC; conditions: aptamer strand: ATP DNA aptamer (quencher-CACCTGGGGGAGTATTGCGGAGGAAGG + anchor), 100 nM annealed; ATP concentration: 500 uM;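 further: ATP exposure 15 min at 22 °C before imaging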
OUTCOME MEASURE: switch fluorescence ratio

SEQ	TEST VALUE
TATATTGAAC	1.02
GGATCTAGGG	0.981
TTTTTATTA	1
GCGCGCGTTC	1.03
TCAGTACTTT	0.998
AATATAAAGC	1.01
TGGGAACTCG	0.995
TTAACTACCG	1.04
TTTTACGGGC	1.02
CGCTTATCCT	1.1
ATAGAGACTA	1.01
CTTTAAAAAG	1
GCAGGTATTG	1.02
AAATGAGTTT	1.02
CTGGGGGTGC	1.06
GGGGGTAGGT	0.985
GTTTGGATCG	1
AACTGGCAAT	1.5
GGTAGATCGG	1
AGGGATCTTT	0.963
ACAGAAGGTC	0.977
CCTCGTTAGC	2.63
GGGGTAAGTT	0.989
GGAGGTTTAA	1.01
CCATTTTCAT	0.99
GCAGTTATTT	0.966
AATGCTAAGA	1.01
CTACGAAGTA	1.01
TGGCTTACAT	1.03
GTTACATAGC	1.08
CGTGTTTCGG	0.977
AATCGTACGT	0.959
TTAAGCGTTT	0.995
ATAATGGTGT	1.03
TTAAGAACAC	1.04
CGACGTTAGT	0.995
AACGTTGTAC	1.51
TATACCTTAA	1.05
AGCATAGCAT	1.01
ACAGCGCTTT	1.03
ACACTGGCCC	0.964
AGGGTAGGGA	0.992
TTTAGGATTT	0.985

Cited source: the supplement of paper PMC10126150
